The origin of these recorded values is ChEMBL document CHEMBL1158500.

# system: N-acylethanolamine-hydrolyzing acid amidase (Homo sapiens) (UniProt Q02083)
# Sequence (Q02083 29-125 limits assumed): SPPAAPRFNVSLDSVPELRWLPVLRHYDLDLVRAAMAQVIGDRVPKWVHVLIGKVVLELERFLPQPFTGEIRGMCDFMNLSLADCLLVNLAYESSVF
# Sequence (Q02083 126-359 limits assumed): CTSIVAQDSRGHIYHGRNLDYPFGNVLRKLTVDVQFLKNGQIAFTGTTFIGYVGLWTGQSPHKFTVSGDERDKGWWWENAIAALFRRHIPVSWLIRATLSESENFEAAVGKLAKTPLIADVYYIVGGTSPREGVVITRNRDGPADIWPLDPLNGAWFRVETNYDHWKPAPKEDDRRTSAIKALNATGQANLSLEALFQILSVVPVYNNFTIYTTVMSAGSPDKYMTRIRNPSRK
# assay-protocol: Inhibition of human recombinant NAAA expressed in human HEK293 cells assessed as conversion of [1,2-14C]palmitoylethanolamine to [1,2-14C]ethanolamine at 50 uM by liquid scintillation counting
# Type: cell-based
The source made the active and inactive calls. The calls are words filed in the database; no cut-off is given here.
outcome-measure: inhibition

Field: example entries. Status: answers known.
{"columns": ["compound", "outcome-measure", "obs-value"],
 "data": [
  ["CCCCCCCCCCCCCCCC(=O)Nc1ccc([N+](=O)[O-])cc1", "inhibition", "15%"],
  ["CCCCCCCCCCCCCCCC(=O)OC1CCCC1 [CYCLOPENTYL PALMITATE]", "inhibition", "85%"],
  ["CCCCCCCCCCCCCCCC(=O)OC1CCC1", "inhibition", "41%"],
  ["CCCCCCCCCCCCCCCCNC(=O)c1ccc(OC)cc1", "inhibition", "inactive"],
  ["CCCCCCCCCCCCCCC(=O)OC1CCCC1", "inhibition", "25%"],
  ["CCCCCCCCCCCCCCCCOC(=O)Nc1ccc(OC)cc1", "inhibition", "inactive"],
  ["CCCCCCCCCCCCCCCC(=O)NN1CCN(c2cc(C)ccc2C)CC1", "inhibition", "inactive"],
  ["CCCCCCCCCCCCCCCC(=O)NCCc1ccc(OC)cc1", "inhibition", "inactive"]
]}

Q: Reported inhibition for `CCCCCCCCCCCCCCCCOC(=O)c1ccc([N+](=O)[O-])cc1` : what is it?
Ans: 26%

Q: Can you check `CCCCCCCCCCCCCCCC(=O)NN1CCN(c2ccc(C)c(C)c2)CC1` next?
Ans: inactive
